# assayed.target: glutathione S-transferase (GST)-fusion human ERK2 protein (Homo sapiens, UniProt P28482)
# Construct: purchased Carna Biosciences, Inc; host or cells: E. coli expression system
# Sequence (P28482 whole entry, the tested form may be a part): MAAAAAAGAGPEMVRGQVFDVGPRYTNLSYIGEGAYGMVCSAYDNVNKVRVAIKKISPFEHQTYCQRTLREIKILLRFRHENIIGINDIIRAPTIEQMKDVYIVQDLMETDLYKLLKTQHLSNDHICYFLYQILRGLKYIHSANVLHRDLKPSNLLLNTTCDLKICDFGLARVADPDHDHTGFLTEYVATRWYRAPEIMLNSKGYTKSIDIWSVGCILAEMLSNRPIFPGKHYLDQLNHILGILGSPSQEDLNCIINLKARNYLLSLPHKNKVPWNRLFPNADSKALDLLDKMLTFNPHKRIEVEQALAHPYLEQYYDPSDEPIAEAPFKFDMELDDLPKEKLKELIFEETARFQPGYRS
# protocol.summary: ERK2 enzyme assay (LabChip mobility shift)
# Assay type: biochemical
# experimental.conditions: IC50 class; 2 nM ERK2, 4.25 μM FL-Peptide 8, 43 μM ATP; read-out: ERK2 Inhibitory Activity
quantity.name: IC50

INSERT INTO results (compound, quantity_name, measured_value) VALUES
  ('O=C(NCC1CC1)Nc1ccc2ncc(-c3cn[nH]c3)cc2n1', 'IC50', '< 100 nM'),
  ('CCCCCNC(=O)Nc1ccc2ncc(-c3cn[nH]c3)cc2n1', 'IC50', '< 100 nM'),
  ('CN(C)CCn1cc(-c2cnc3ccc(NC(=S)NC4CCCC4)nc3c2)cn1', 'IC50', '< 100 nM'),
  ('O=C(Nc1ccc2ncc(-c3cnn(CCCCN4CCOCC4)c3)cc2n1)NC1CCCC1', 'IC50', '< 100 nM'),
  ('C[C@H](C[C@@H](C)Oc1ccccc1)NC(=O)Nc1ccc2ncc(-c3cn[nH]c3)cc2n1', 'IC50', '< 100 nM'),
  ('O=C(NCC1CCCOC1)Nc1ccc2ncc(-c3cn[nH]c3)cc2n1 (centres unmarked)', 'IC50', '< 100 nM'),
  ('O=C(Nc1ccc2ncc(-c3ccc4c(c3)OCO4)cc2n1)NC1CCCC1', 'IC50', '100 to 1000 nM'),
  ('O=C(Nc1ccc2ncc(-c3cn[nH]c3)cc2n1)NC1CCCc2ccccc21 (centres unmarked)', 'IC50', '< 100 nM');

---

Each entry below lists one item and its recorded IC50 value.
# assayed.target: glutathione S-transferase (GST)-fusion human ERK2 protein (Homo sapiens)
# Construct: purchased Carna Biosciences, Inc; host or cells: E. coli expression system
# protocol.summary: ERK2 enzyme assay (LabChip mobility shift)
# Assay type: biochemical
# experimental.conditions: IC50 class; 2 nM ERK2, 4.25 μM FL-Peptide 8, 43 μM ATP; read-out: ERK2 Inhibitory Activity
quantity.name: IC50

INSERT INTO results (smiles_repr, assayed_target, quantity_name, measured_value) VALUES
  ('O=C(Nc1ccc2ncc(-c3cnn(CCCN4CC[C@H](F)C4)c3)cc2n1)NC1CCCC1', 'glutathione S-transferase (GST)-fusion human ERK2 protein (Homo sapiens)', 'IC50', '< 0.1 µM'),
  ('CN(CCO)CCn1cc(-c2cnc3ccc(NC(=O)NC4CCCC4)nc3c2)cn1', 'glutathione S-transferase (GST)-fusion human ERK2 protein (Homo sapiens)', 'IC50', '< 0.1 µM'),
  ('CCN(CC)CCNC(=O)Nc1ccc2ncc(-c3cn[nH]c3)cc2n1', 'glutathione S-transferase (GST)-fusion human ERK2 protein (Homo sapiens)', 'IC50', '1 to 10 µM'),
  ('O=C(Nc1ccc2ncc(-c3cc(O)no3)cc2n1)NC1CCCC1', 'glutathione S-transferase (GST)-fusion human ERK2 protein (Homo sapiens)', 'IC50', '1 to 10 µM'),
  ('COCCN(CCOC)CCn1cc(-c2cnc3ccc(NC(=O)NC4CCCC4)nc3c2)cn1', 'glutathione S-transferase (GST)-fusion human ERK2 protein (Homo sapiens)', 'IC50', '< 0.1 µM'),
  ('COc1nc2ccc(NC(=O)NC3CCCC3)nc2cc1-c1cnn(C)c1', 'glutathione S-transferase (GST)-fusion human ERK2 protein (Homo sapiens)', 'IC50', '> 10 µM'),
  ('CCCCCCNC(=O)Nc1ccc2ncc(-c3cn[nH]c3)cc2n1', 'glutathione S-transferase (GST)-fusion human ERK2 protein (Homo sapiens)', 'IC50', '< 0.1 µM'),
  ('CCCN1CCC(n2cc(-c3cnc4ccc(NC(=O)NC5CCCC5)nc4c3)cn2)CC1', 'glutathione S-transferase (GST)-fusion human ERK2 protein (Homo sapiens)', 'IC50', '0.1 to 1 µM'),
  ('O=C(Nc1ccc2ncc(-c3cn[nH]c3)cc2n1)NC1Cc2ccccc2C1', 'glutathione S-transferase (GST)-fusion human ERK2 protein (Homo sapiens)', 'IC50', '< 0.1 µM');

---

# assayed.target: glutathione S-transferase (GST)-fusion human ERK2 protein (Homo sapiens, UniProt P28482)
# Construct: purchased Carna Biosciences, Inc; host or cells: E. coli expression system
# protocol.summary: ERK2 enzyme assay (LabChip mobility shift)
# Format: biochemical
# experimental.conditions: IC50 class; 2 nM ERK2, 4.25 μM FL-Peptide 8, 43 μM ATP; read-out: ERK2 Inhibitory Activity
Some molecules, each annotated with its measured IC50.
quantity.name: IC50

INSERT INTO measurements (molecule, measured_value) VALUES
  ('C[C@@H]1CN(c2cnc3ccc(NC(=O)NC4CCCC4)nc3c2)C[C@H](C)O1', '100 to 1000 nM'),
  ('O=C(Nc1ccc2ncc(-c3ccc(F)cc3)cc2n1)NC1CCCC1', '< 100 nM'),
  ('C[C@@H](NC(=O)Nc1ccc2ncc(-c3cn[nH]c3)cc2n1)C1CCCCC1', '< 100 nM'),
  ('O=C(Nc1ccc2ncc(-c3ccccn3)cc2n1)NC1CCCC1', '< 100 nM'),
  ('NC(=O)c1cnc2ccc(NC(=O)NC3CCCC3)nc2c1', '100 to 1000 nM'),
  ('C[C@H](NC(=O)Nc1ccc2ncc(-c3cn[nH]c3)cc2n1)C1CCCCC1', '< 100 nM'),
  ('O=C(Nc1ccc2ncc(Nc3cn[nH]c3)cc2n1)NC1CCCC1', '100 to 1000 nM'),
  ('O=C(NCCCCc1ccccc1)Nc1ccc2ncc(-c3cnn(CCCN4CCOCC4)c3)cc2n1', '< 100 nM'),
  ('COC1CN(c2cnc3ccc(NC(=O)NC4CCCC4)nc3c2)C1', '100 to 1000 nM'),
  ('O=C(Nc1ccc2ncc(-c3cnn(C4CCNC4)c3)cc2n1)NC1CCCC1 (stereo not shown)', '100 to 1000 nM'),
  ('CS(=O)(=O)N1CCN(c2cnc3ccc(NC(=O)NC4CCCC4)nc3c2)CC1', '< 100 nM'),
  ('O=C(NCc1ccccn1)Nc1ccc2ncc(-c3cn[nH]c3)cc2n1', '< 100 nM'),
  ('CCN(CC)CCn1cc(-c2cnc3ccc(NC(=O)NC4CCCC4)nc3c2)cn1', '100 to 1000 nM'),
  ('O=C(Nc1ccc2ncc(-c3cn[nH]c3)cc2n1)NC1CCC1', '< 100 nM'),
  ('O=C(Nc1ccc2ncc(-c3cn[nH]c3)cc2n1)N[C@@H]1CC[C@H](CF)C1', '< 100 nM'),
  ('O=C(NCC12CC3CC(CC(C3)C1)C2)Nc1ccc2ncc(-c3cn[nH]c3)cc2n1', '< 100 nM'),
  ('O=C(NCCCN1CCCCC1)Nc1ccc2ncc(-c3cn[nH]c3)cc2n1', '100 to 1000 nM'),
  ('O=C(Nc1ccc2ncc(-c3cn[nH]c3)cc2n1)NC1CC1', '< 100 nM'),
  ('CN1CCC(n2cc(-c3cnc4ccc(NC(=O)NC5(C)CCCC5)nc4c3)cn2)CC1', '100 to 1000 nM'),
  ('CC(C)(C)OC(=O)N1CCN(CCCn2cc(-c3cnc4ccc(NC(=O)NC5CCCC5)nc4c3)cn2)CC1', '< 100 nM'),
  ('C[C@@H](C[C@H](C)Oc1ccccc1)NC(=O)Nc1ccc2ncc(-c3cn[nH]c3)cc2n1', '100 to 1000 nM'),
  ('COc1ccc(CCCCNC(=O)Nc2ccc3ncc(-c4cn[nH]c4)cc3n2)cc1', '< 100 nM'),
  ('O=C(Nc1ccc2ncc(-c3cnn(C4CCNCC4)c3)cc2n1)NC1CCCC1', '100 to 1000 nM'),
  ('CN1CCN(CCCn2cc(-c3cnc4ccc(NC(=O)NC5(C)CCCC5)nc4c3)cn2)CC1', '100 to 1000 nM'),
  ('CC(C)(C)OC(=O)N1CC[C@@H](NC(=O)Nc2ccc3ncc(-c4cn[nH]c4)cc3n2)C1', '< 100 nM'),
  ('C[C@H](CN(C)C)Cn1cc(-c2cnc3ccc(NC(=O)NC4CCCC4)nc3c2)cn1', '< 100 nM'),
  ('O=C(Nc1ccc2ncc(N3CCOC3=O)cc2n1)NC1CCCC1', '100 to 1000 nM'),
  ('O=C(Nc1ccc2ncc(-c3cnc4ccccc4c3)cc2n1)NC1CCCC1', '1000 to 10000 nM'),
  ('COc1cc(-c2cnc3ccc(NC(=O)NC4CCCC4)nc3c2)cnc1O', '< 100 nM'),
  ('O=C(NCC1CCC(F)(F)CC1)Nc1ccc2ncc(-c3cn[nH]c3)cc2n1', '< 100 nM'),
  ('O=C(Nc1ccc2ncc(-n3ccnc3)cc2n1)NC1CCCC1', '< 100 nM'),
  ('O=C(NCCCc1ccccc1)Nc1ccc2ncc(-c3cn[nH]c3)cc2n1', '< 100 nM'),
  ('O=C(Nc1ccc2ncc(-c3cn[nH]c3)cc2n1)NC1C[C@H]2CC[C@@H]1C2 (stereo partly shown)', '< 100 nM'),
  ('O=C(Nc1ccc2ncc(N3CCN(c4ccncc4)CC3)cc2n1)NC1CCCC1', '100 to 1000 nM');

These data points were gathered from patent US8841456B2.
